TARGET: T1, human factor XIIa (human, UniProt P00748 20-615, biotinylated with Biotin Ester (Zymed); sites not stated)
T1 chain: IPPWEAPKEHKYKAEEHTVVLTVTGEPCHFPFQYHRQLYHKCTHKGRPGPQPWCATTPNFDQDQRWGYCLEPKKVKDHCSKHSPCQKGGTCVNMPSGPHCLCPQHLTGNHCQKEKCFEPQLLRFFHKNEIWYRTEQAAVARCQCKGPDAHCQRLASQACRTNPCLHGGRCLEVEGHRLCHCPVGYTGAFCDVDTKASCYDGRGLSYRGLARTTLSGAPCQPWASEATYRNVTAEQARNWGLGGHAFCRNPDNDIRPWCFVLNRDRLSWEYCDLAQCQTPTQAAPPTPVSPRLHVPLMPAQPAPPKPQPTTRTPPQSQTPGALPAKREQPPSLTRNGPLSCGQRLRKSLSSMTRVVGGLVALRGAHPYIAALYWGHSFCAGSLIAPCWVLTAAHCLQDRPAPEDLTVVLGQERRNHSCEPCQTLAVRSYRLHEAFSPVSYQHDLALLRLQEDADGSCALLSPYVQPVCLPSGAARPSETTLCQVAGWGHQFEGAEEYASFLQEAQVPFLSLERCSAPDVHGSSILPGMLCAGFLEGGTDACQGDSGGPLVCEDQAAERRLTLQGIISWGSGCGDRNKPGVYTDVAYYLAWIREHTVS
ASSAY METHOD TEXT: enzyme inhibition
Please assign not satisfied whenever Ki is at or above 900 nM, and satisfied whenever it is below.

Some solved entries appear below for comparison.
> print(dat)
                                     binder   answer.label
1  TW6209 (protein) EVVREVCSEQAETGPCRAMISHWYFDVTEGKCAPFFYGGCGGNRNNFDTEEYCMAVCGSAI      satisfied
2  TW6157 (protein) EVVREVCSEQAETGPCRAMISRWYFDVTEGKCAPFFYGGCSGNRNNFDTEEYCMAVCGSAI      satisfied
3  TW6142 (protein) EVVREVCSEQAETGPCRAMISRWYFDVTEGKCAPFVYGGCGGNRNNFDTEEYCMAVCGSAI  not satisfied
4  TW6140 (protein) EVVREVCSEQAETGPCRAMISRWYFDVTEGKCAPFFYGGCNGNRNNFDTEEYCMAVCGSAI      satisfied
5  AL301 (protein) EVVREVCSEQAETGPCRAMISRWYFDVTEGKCAPFLYGGCGGNRNNFDTEEYCMAVCGSAI  not satisfied

[Q] Is it true that Ki reported for TW6211 (protein) EVVREVCSEQAETGPCRAMISKWYFDVTEGKCAPFFYGGCGGNRNNFDTEEYCMAVCGSAI is less than 900 nM?
[A] satisfied

[Q] // same read-out, input: TW118 (protein) EVCSEQAETGPCRAMISRWYFDVTEGKCAPFFYGGCRGNRNNFDTEEYCMAVCGSAI
[A] not satisfied

[Q] // same read-out, input: TW6147 (protein) EVVREVCSEQAETGPCRAMISRWYFDVTEGKCAPFFYGGCAGNRNNFDTEEYCMAVCGSAI
[A] not satisfied
